All figures here come from patent US20240173440A1.

Field: tissue uptake at 4 h. Provide a value for each of the molecules that follow.
Assay: in vivo
Conditions: athymic nude Foxn1, mouse, iv, 20 umol, total radioactivity, Biodistribution SSTR2-tumor

tissue uptake at 4 h for C[C@@H](O)[C@@H]1NC(=O)[C@H](CCCCN)NC(=O)[C@@H](Cc2ccc(NC(N)=O)cc2)NC(=O)[C@H](Cc2ccc(O)cc2)NC(=O)[C@H](NC(=O)[C@H](Cc2ccc(Cl)cc2)NC(=O)CCC(C(=O)O)N2CCN(CC(=O)O)CCN(CC(=O)O)CC2)CSSC[C@@H](C(=O)N[C@H](Cc2ccc(O)cc2)C(N)=O)NC1=O (some centres unmarked) [[^61Cu]Cu-NODAGA-LM3, metal not drawn] is 20.4 %ID/g

# tissue uptake at 4 h (molecule: C[C@@H](O)[C@@H]1NC(=O)[C@H](CCCCN)NC(=O)[C@@H](Cc2ccc(NC(N)=O)cc2)NC(=O)[C@H](Cc2ccc(O)cc2)NC(=O)[C@H](NC(=O)[C@H](Cc2ccc(Cl)cc2)NC(=O)CC[C@H](C(=O)O)N2CCN(CC(=O)O)CCN(CC(=O)O)CC2)CSSC[C@@H](C(=O)N[C@H](Cc2ccc(O)cc2)C(N)=O)NC1=O [[^61Cu]Cu-(R)-NODAGA-LM3, metal not drawn] ) is 19 %ID/g

* * *

System: HT-1080.hFAP and HT-1080.wt xenografts
Assay: Quantitative biodistribution in HT-1080.hFAP and HT-1080.wt xenografted mice
Format: in vivo
Details: 1 h p.i., HT-1080.hFAP and HT-1080.wt xenografts
Metric: Biodistribution Spleen (% IA/g)
Report only the number, with the unit % IA/g understood.

The measured Biodistribution Spleen associated with CN(C(=O)CCC(=O)NCCNC(=O)CC[C@H](C(=O)O)N1CCN2CCN(CC1)CC(=O)[O][61Cu][O]C(=O)C2)c1ccc2nccc(C(=O)NCC(=O)N3CC(F)(F)C[C@H]3C#N)c2c1 [[^61Cu]Cu-NODAGA-F2] reads 0.4

Consider CN(CCCN1CCN(C(=O)CCC(C(=O)O)N2CCN3CCN(CC2)CC(=O)[O][61Cu][O]C(=O)C3)CC1)c1ccc2nccc(C(=O)NCC(=O)N3CC(F)(F)C[C@H]3C#N)c2c1 (some centres unmarked) [[^61Cu]Cu-NODAGA-FAPI-46] . Its measured Biodistribution Spleen is 0.7

Per the record, N#C[C@@H]1CC(F)(F)CN1C(=O)CNC(=O)c1ccnc2ccc(NC(=O)CCC(=O)N3CCN(C(=O)CC[C@H](C(=O)O)N4CCN5CCN(CC4)CC(=O)[O][61Cu][O]C(=O)C5)CC3)cc12 [[^61Cu]Cu-NODAGA-F3] has Biodistribution Spleen of 0.5

Summary for this compound, N#C[C@@H]1CC(F)(F)CN1C(=O)CNC(=O)c1ccnc2ccc(NC(=O)CCC(=O)NCCNC(=O)CC[C@H](C(=O)O)N3CCN4CCN(CC3)CC(=O)[O][61Cu][O]C(=O)C4)cc12 [[^61Cu]Cu-NODAGA-F1] : Biodistribution Spleen is 0.8

Per the records, this compound ( CN(C(=O)CCC(=O)N1CCN(C(=O)CC[C@H](C(=O)O)N2CCN3CCN(CC2)CC(=O)[O][61Cu][O]C(=O)C3)CC1)c1ccc2nccc(C(=O)NCC(=O)N3CC(F)(F)C[C@H]3C#N)c2c1 [[^61Cu]Cu-NODAGA-F4] ) has Biodistribution Spleen equal to 0.4

* * *

System: HT-1080.hFAP and HT-1080.wt xenografts
Experiment: Quantitative biodistribution in HT-1080.hFAP and HT-1080.wt xenografted mice
Assay type: in vivo
Settings: 4 h p.i., HT-1080.hFAP and HT-1080.wt xenografts
Could you please report measured Biodistribution Adrenal for the items listed next?

Summary for this compound, CN(C(=O)CCC(=O)NCCNC(=O)CC[C@H](C(=O)O)N1CCN2CCN(CC1)CC(=O)[O][61Cu][O]C(=O)C2)c1ccc2nccc(C(=O)NCC(=O)N3CC(F)(F)C[C@H]3C#N)c2c1 [[^61Cu]Cu-NODAGA-F2] : Biodistribution Adrenal is 0.3 ± 0.1 % IA/g

Recorded Biodistribution Adrenal (compound CN(C(=O)CCC(=O)N1CCN(C(=O)CC[C@H](C(=O)O)N2CCN3CCN(CC2)CC(=O)[O][61Cu][O]C(=O)C3)CC1)c1ccc2nccc(C(=O)NCC(=O)N3CC(F)(F)C[C@H]3C#N)c2c1 [[^61Cu]Cu-NODAGA-F4] ): 0.5 ± 0.1 % IA/g

// recorded Biodistribution Adrenal for CN(CCCN1CCN(C(=O)CCC(C(=O)O)N2CCN3CCN(CC2)CC(=O)[O][61Cu][O]C(=O)C3)CC1)c1ccc2nccc(C(=O)NCC(=O)N3CC(F)(F)C[C@H]3C#N)c2c1 (some centres unmarked) [[^61Cu]Cu-NODAGA-FAPI-46] : 2.0 ± 0.2 % IA/g

For reference, reported Biodistribution Adrenal for N#C[C@@H]1CC(F)(F)CN1C(=O)CNC(=O)c1ccnc2ccc(NC(=O)CCC(=O)N3CCN(C(=O)CC[C@H](C(=O)O)N4CCN5CCN(CC4)CC(=O)[O][61Cu][O]C(=O)C5)CC3)cc12 [[^61Cu]Cu-NODAGA-F3] stands at 1.4 ± 0.3 % IA/g

Biodistribution Adrenal for N#C[C@@H]1CC(F)(F)CN1C(=O)CNC(=O)c1ccnc2ccc(NC(=O)CCC(=O)NCCNC(=O)CC[C@H](C(=O)O)N3CCN4CCN(CC3)CC(=O)[O][61Cu][O]C(=O)C4)cc12 [[^61Cu]Cu-NODAGA-F1] is 1.4 ± 0.2 % IA/g

* * *

System: HT-1080.hFAP and HT-1080.wt xenografts
Assay: Quantitative biodistribution in HT-1080.hFAP and HT-1080.wt xenografted mice
Format: in vivo
Conditions: 4 hours p.i.
Would you mind telling me the reported Biodistribution Lung of each entry?
The reply should contain only the number, in % I.A./g.

Lookup result for CN(C(=O)CCC(=O)N1CCN(C(=O)CC[C@H](C(=O)O)N2CCN3CCN(CC2)CC(=O)[O][61Cu][O]C(=O)C3)CC1)c1ccc2nccc(C(=O)NCC(=O)N3CC(F)(F)C[C@H]3C#N)c2c1 [[^61Cu]Cu-NODAGA-F4] ; measured Biodistribution Lung: 0.3

Briefly, Biodistribution Lung measured for CN(C(=O)CCC(=O)NCCNC(=O)CC[C@H](C(=O)O)N1CCN2CCN(CC1)CC(=O)[O][61Cu][O]C(=O)C2)c1ccc2nccc(C(=O)NCC(=O)N3CC(F)(F)C[C@H]3C#N)c2c1 [[^61Cu]Cu-NODAGA-F2] : 0.4

Entry N#C[C@@H]1CC(F)(F)CN1C(=O)CNC(=O)c1ccnc2ccc(NC(=O)CCC(=O)NCCNC(=O)CC[C@H](C(=O)O)N3CCN4CCN(CC3)CC(=O)[O][61Cu][O]C(=O)C4)cc12 [[^61Cu]Cu-NODAGA-F1] — recorded Biodistribution Lung = 0.8

Sure, the documented Biodistribution Lung for N#C[C@@H]1CC(F)(F)CN1C(=O)CNC(=O)c1ccnc2ccc(NC(=O)CCC(=O)N3CCN(C(=O)CC[C@H](C(=O)O)N4CCN5CCN(CC4)CC(=O)[O][61Cu][O]C(=O)C5)CC3)cc12 [[^61Cu]Cu-NODAGA-F3] is 0.7

* * *

Assay: Pharmacokinetics (biodistribution 1-24 h) in non-tumor bearing mice
Type: in vivo
Conditions: female, BALB/c, mouse, adrenal, 200 umol, total radioactivity; 1 hour after injection, ^61Cu; read-out: Biodistribution Adrenal
Procedure: The biodistribution at the investigate time points was performed as described in the Example 9. The data were combined with the results obtained from the groups of xenografts at 1 hour and 4 hours p.i., as the biodistribution in nude mice was the same as in the healthy mice. The results were expressed as described in the Example 10.
Metric: tissue uptake at 1 h (%ID/g)
Could you give me the number in %ID/g? Just the number is fine.

# compound C[C@@H](O)[C@@H]1NC(=O)[C@H](CCCCN)NC(=O)[C@@H](Cc2c[nH]c3ccccc23)NC(=O)[C@H](Cc2ccc(O)cc2)NC(=O)[C@@H](NC(=O)[C@@H](Cc2ccccc2)NC(=O)CCC(C(=O)O)N2CCN(CC(=O)O)CCN(CC(=O)O)CC2)CSSC[C@@H](C(=O)N[C@H](CO)[C@@H](C)O)NC1=O (single isomer, unassigned) [[^61/^64Cu]Cu-NODAGA-TOC, metal not drawn] ; its tissue uptake at 1 h = 1.06

* * *

Molecular target: hFAP (Homo sapiens (Human), UniProt Q12884)
Sequence (Q12884 whole entry): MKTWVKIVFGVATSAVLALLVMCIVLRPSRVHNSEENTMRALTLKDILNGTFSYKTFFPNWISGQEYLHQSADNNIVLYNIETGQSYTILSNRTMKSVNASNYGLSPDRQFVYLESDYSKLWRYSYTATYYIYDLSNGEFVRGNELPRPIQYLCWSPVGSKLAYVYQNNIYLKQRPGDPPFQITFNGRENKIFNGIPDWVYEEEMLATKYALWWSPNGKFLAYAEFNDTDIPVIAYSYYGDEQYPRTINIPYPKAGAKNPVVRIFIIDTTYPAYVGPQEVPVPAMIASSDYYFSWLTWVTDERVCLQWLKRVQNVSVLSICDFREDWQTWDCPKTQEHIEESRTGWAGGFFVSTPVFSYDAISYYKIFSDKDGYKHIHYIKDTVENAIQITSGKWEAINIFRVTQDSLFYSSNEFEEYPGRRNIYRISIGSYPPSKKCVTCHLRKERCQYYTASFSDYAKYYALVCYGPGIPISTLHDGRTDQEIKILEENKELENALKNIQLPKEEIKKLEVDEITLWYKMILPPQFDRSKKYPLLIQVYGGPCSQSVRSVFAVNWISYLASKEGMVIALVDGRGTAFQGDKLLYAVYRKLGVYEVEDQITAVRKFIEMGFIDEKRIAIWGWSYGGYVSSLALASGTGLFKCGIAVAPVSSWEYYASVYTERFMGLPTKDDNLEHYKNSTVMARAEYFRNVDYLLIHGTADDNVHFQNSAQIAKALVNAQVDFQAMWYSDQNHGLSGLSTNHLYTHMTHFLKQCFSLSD
Experiment: Saturation binding on isolated HEK-293.hFAP cell membranes
Design: unit not given here
Settings: 37° C.
I'd be grateful if you could share measured Bmax for these entries.

Recorded result, CN(CCCN1CCN(C(=O)CCC(C(=O)O)N2CCN3CCN(CC2)CC(=O)[O][61Cu][O]C(=O)C3)CC1)c1ccc2nccc(C(=O)NCC(=O)N3CC(F)(F)C[C@H]3C#N)c2c1 (some centres unmarked) [[^61Cu]Cu-NODAGA-FAPI-46] , Bmax: 9.0-10.3

Looking up N#C[C@@H]1CC(F)(F)CN1C(=O)CNC(=O)c1ccnc2ccc(NC(=O)CCC(=O)NCCNC(=O)CC[C@H](C(=O)O)N3CCN4CCN(CC3)CC(=O)[O][61Cu][O]C(=O)C4)cc12 [[^61Cu]Cu-NODAGA-F1] , I found its Bmax recorded as 8.6-9.2

Looking up CN(C(=O)CCC(=O)NCCNC(=O)CC[C@H](C(=O)O)N1CCN2CCN(CC1)CC(=O)[O][61Cu][O]C(=O)C2)c1ccc2nccc(C(=O)NCC(=O)N3CC(F)(F)C[C@H]3C#N)c2c1 [[^61Cu]Cu-NODAGA-F2] , I found its Bmax recorded as 7.7-8.4

The recorded Bmax for CN(C(=O)CCC(=O)N1CCN(C(=O)CC[C@H](C(=O)O)N2CCN3CCN(CC2)CC(=O)[O][61Cu][O]C(=O)C3)CC1)c1ccc2nccc(C(=O)NCC(=O)N3CC(F)(F)C[C@H]3C#N)c2c1 [[^61Cu]Cu-NODAGA-F4] is 9.1-9.8

The reported value for N#C[C@@H]1CC(F)(F)CN1C(=O)CNC(=O)c1ccnc2ccc(NC(=O)CCC(=O)N3CCN(C(=O)CC[C@H](C(=O)O)N4CCN5CCN(CC4)CC(=O)[O][61Cu][O]C(=O)C5)CC3)cc12 [[^61Cu]Cu-NODAGA-F3] in terms of Bmax is 7.3-8.1
